Task for the reader: assign each of the following molecules its reported pKd.
# EXPERIMENTAL SYSTEM: proMMP9(20-445;ΔFnII) (SEQ ID NO:6) (Homo sapiens, UniProt P14780, DEL216-390)
# Construct: start methionine (N)
# Sequence (P14780 with tags, fused parts or gaps DEL216-390): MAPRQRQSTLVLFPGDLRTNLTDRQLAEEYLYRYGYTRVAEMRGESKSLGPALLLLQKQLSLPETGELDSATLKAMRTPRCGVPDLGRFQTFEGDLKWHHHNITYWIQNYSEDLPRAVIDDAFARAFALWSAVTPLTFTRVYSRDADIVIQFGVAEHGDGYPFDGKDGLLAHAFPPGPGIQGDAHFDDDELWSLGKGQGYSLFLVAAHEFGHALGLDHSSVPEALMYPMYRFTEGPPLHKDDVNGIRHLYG
# EXPERIMENT NOTES: ThermoFluor binding assay with proMMP9(20-445;ΔFnII)
# log scale: pKd equals minus log10 of the concentration in mol/L

Summary for this molecule, Cc1nc2c(s1)-c1nc(Nc3cc(C(N)=O)ccc3OC(C)C)sc1CC2 : pKd is 5.77

Summary for this molecule, COc1ccncc1Nc1nc2c(ccc3nc(C)n(C)c32)s1 : pKd is 5.18

Summary for this molecule, COc1ccc(OC)c(Nc2nc3c(ccc4nc(N)sc43)s2)c1 : pKd is 5.51

Summary for this molecule, CC(=O)Nc1nc2c(ccc3sc(Nc4cc(C(N)=O)ccc4OC(C)C)nc32)[nH]1 : pKd is 6.06

Summary for this molecule, CCOP(=O)(OCC)c1ccc(OC)c(Nc2nc3c(ccc4c3ncn4C)s2)c1 : pKd is 5.23

Summary for this molecule, CCn1c(C)nc2ccc3sc(Nc4cc(S(N)(=O)=O)ccc4OC(C)C)nc3c21 : pKd is 6.54

Summary for this molecule, CCOc1ccccc1Nc1nc2c(ccc3sc(N)nc32)s1 : pKd is 5.49

Summary for this molecule, COc1ncccc1Nc1nc2c(ccc3c2ncn3C)s1 : pKd is 5.22

---

# EXPERIMENTAL SYSTEM: proMMP9(67-444;ΔFnII) (SEQ ID NO:5) (Homo sapiens, UniProt P14780, DEL216-390)
# Construct: start methionine (N)
# Sequence (P14780 with tags, fused parts or gaps DEL216-390): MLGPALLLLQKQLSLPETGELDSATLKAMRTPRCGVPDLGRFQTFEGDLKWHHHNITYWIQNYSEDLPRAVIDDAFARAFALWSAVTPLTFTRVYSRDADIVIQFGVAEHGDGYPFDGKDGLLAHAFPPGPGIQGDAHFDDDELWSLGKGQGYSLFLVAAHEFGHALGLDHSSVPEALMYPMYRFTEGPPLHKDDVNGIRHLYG
# EXPERIMENT NOTES: ThermoFluor binding assay with proMMP9(67-444;ΔFnII)
Task for the reader: assign each of the following compounds its reported pKd.
# log scale: pKd equals minus log10 of the concentration in mol/L

proMMP9(67-444;ΔFnII) (SEQ ID NO:5) (Homo sapiens, UniProt P14780, DEL216-390) data for COc1ccc(F)cc1Nc1nc2c(ccc3nc(C)n(C)c32)s1 ; its pKd: 6.22

proMMP9(67-444;ΔFnII) (SEQ ID NO:5) (Homo sapiens, UniProt P14780, DEL216-390) data for COc1ccccc1Nc1nc2c(ccc3c2ncn3C)s1 ; its pKd: 6.62

proMMP9(67-444;ΔFnII) (SEQ ID NO:5) (Homo sapiens, UniProt P14780, DEL216-390) data for CCOc1ccccc1Nc1nc2c(ccc3sc(Nc4ccccc4OCC)nc32)s1 ; its pKd: 4.52

proMMP9(67-444;ΔFnII) (SEQ ID NO:5) (Homo sapiens, UniProt P14780, DEL216-390) data for COc1ccc(N)cc1Nc1nc2c(ccc3c2ncn3C)s1 ; its pKd: 6.03

proMMP9(67-444;ΔFnII) (SEQ ID NO:5) (Homo sapiens, UniProt P14780, DEL216-390) data for CC(C)Oc1ccc(C(N)=O)cc1Nc1nc2c(ccc3[nH]c(N4CCN(C)CC4)nc32)s1 ; its pKd: 6.09

proMMP9(67-444;ΔFnII) (SEQ ID NO:5) (Homo sapiens, UniProt P14780, DEL216-390) data for COc1ccc(S(=O)(=O)N2CCCCC2)cc1Nc1nc2c(ccc3c2ncn3C)s1 ; its pKd: 6.02

proMMP9(67-444;ΔFnII) (SEQ ID NO:5) (Homo sapiens, UniProt P14780, DEL216-390) data for CC(C)Oc1ccc(C(N)=O)cc1Nc1nc2c(s1)CCc1cnccc1-2 ; its pKd: 4.60

proMMP9(67-444;ΔFnII) (SEQ ID NO:5) (Homo sapiens, UniProt P14780, DEL216-390) data for CCn1c(C)nc2ccc3sc(Nc4cc(S(N)(=O)=O)ccc4OC(F)(F)F)nc3c21 ; its pKd: 6.47

proMMP9(67-444;ΔFnII) (SEQ ID NO:5) (Homo sapiens, UniProt P14780, DEL216-390) data for Cc1nc2c3nc(Nc4cc(C(N)=O)ccc4OC(C)C)sc3ccc2n1C ; its pKd: 7.41

---

# EXPERIMENTAL SYSTEM: proMMP13(1-268) (SEQ ID NO:7) (Homo sapiens)
# Construct: 6xHis (C)
# EXPERIMENT NOTES: ThermoFluor binding assay with proMMP13(1-268)
PARAMETER MEASURED: Kd (µM)
Quick reminder: number only, in µM, skip the unit.

Summary for this molecule, CCCn1c(C)nc2c3nc(Nc4cc(C(N)=O)ccc4OC(C)C)sc3ccc21 : Kd is 2

Summary for this molecule, CCOc1ccccc1Nc1nc2c(ccc3c2ncn3C)s1 : Kd is 5.9

Summary for this molecule, CC(C)Oc1ccc(C(N)=O)cc1Nc1nc2c(ccc3[nH]c(=O)[nH]c32)s1 : Kd is 3

Summary for this molecule, COc1ccccc1Nc1nc2c(ccc3[nH]c(NC(C)=O)nc32)s1 : Kd is 19

---

# EXPERIMENTAL SYSTEM: proMMP9(20-445;ΔFnII) (SEQ ID NO:6) (Homo sapiens, UniProt P14780, DEL216-390)
# Construct: start methionine (N); made in house; host or cells: E. coli BL21(DE3) RIL
# EXPERIMENT NOTES: ThermoFluor binding assay with proMMP9(20-445;ΔFnII)
PARAMETER MEASURED: pKd
# log scale: pKd equals minus log10 of the concentration in mol/L

proMMP9(20-445;ΔFnII) (SEQ ID NO:6) (Homo sapiens, UniProt P14780, DEL216-390) data for COc1ccc(C(F)(F)F)cc1Nc1nc2c(ccc3c2ncn3C)s1 ; its pKd: 5.52

proMMP9(20-445;ΔFnII) (SEQ ID NO:6) (Homo sapiens, UniProt P14780, DEL216-390) data for COc1ccc(P(=O)(O)O)cc1Nc1nc2c(ccc3c2ncn3C)s1 ; its pKd: 5.12

proMMP9(20-445;ΔFnII) (SEQ ID NO:6) (Homo sapiens, UniProt P14780, DEL216-390) data for CC(C)Oc1ccc(S(N)(=O)=O)cc1Nc1nc2c(ccc3c2ccn3C)s1 ; its pKd: 6.32

---

# EXPERIMENTAL SYSTEM: proMMP9(20-445;ΔFnII) (SEQ ID NO:6) (Homo sapiens, UniProt P14780, DEL216-390)
# Construct: start methionine (N)
# EXPERIMENT NOTES: ThermoFluor binding assay with proMMP9(20-445;ΔFnII)
Task for the reader: assign each of the following molecules its reported pKd.
# log scale: pKd equals minus log10 of the concentration in mol/L

proMMP9(20-445;ΔFnII) (SEQ ID NO:6) (Homo sapiens, UniProt P14780, DEL216-390) data for COc1ccc(F)cc1Nc1nc2c(ccc3nc(C)n(C)c32)s1 [Example 125] ; its pKd: 5.51

proMMP9(20-445;ΔFnII) (SEQ ID NO:6) (Homo sapiens, UniProt P14780, DEL216-390) data for COc1ccc(F)cc1Nc1nc2c(ccc3c2cnn3C)s1 [Example 93] ; its pKd: 4.72

proMMP9(20-445;ΔFnII) (SEQ ID NO:6) (Homo sapiens, UniProt P14780, DEL216-390) data for COC(=O)c1ccc(OC)c(Nc2nc3c(ccc4c3ncn4C)s2)c1 [Example 61] ; its pKd: 5.49

proMMP9(20-445;ΔFnII) (SEQ ID NO:6) (Homo sapiens, UniProt P14780, DEL216-390) data for Cn1cnc2c3nc(Nc4cc(C(N)=O)ccc4OC(F)(F)F)sc3ccc21 [Example 65] ; its pKd: 7.11

proMMP9(20-445;ΔFnII) (SEQ ID NO:6) (Homo sapiens, UniProt P14780, DEL216-390) data for COc1ccc(S(=O)(=O)N2CCCCC2)cc1Nc1nc2c(ccc3c2ncn3C)s1 [Example 80] ; its pKd: 5.64

proMMP9(20-445;ΔFnII) (SEQ ID NO:6) (Homo sapiens, UniProt P14780, DEL216-390) data for CC(C)Oc1ccc(C(N)=O)cc1Nc1nc2c(s1)CCc1cnccc1-2 [Example 115] ; its pKd: 5.52

proMMP9(20-445;ΔFnII) (SEQ ID NO:6) (Homo sapiens, UniProt P14780, DEL216-390) data for CC(C)Oc1ccc(C(N)=O)cc1Nc1nc2c(s1)CCc1ccncc1-2 [Example 116] ; its pKd: 5.74

proMMP9(20-445;ΔFnII) (SEQ ID NO:6) (Homo sapiens, UniProt P14780, DEL216-390) data for COc1ccccc1Nc1nc2c(ccc3[nH]c(N)nc32)s1 [Example 6] ; its pKd: 5.62

proMMP9(20-445;ΔFnII) (SEQ ID NO:6) (Homo sapiens, UniProt P14780, DEL216-390) data for COc1ccc(Cl)cc1Nc1nc2c(ccc3nc(N)sc32)s1 [Example 7] ; its pKd: 5.64

proMMP9(20-445;ΔFnII) (SEQ ID NO:6) (Homo sapiens, UniProt P14780, DEL216-390) data for Cc1nc2ccc3sc(Nc4cc(F)ccc4OC(C)C)nc3c2n1CC(F)(F)F [Example 141] ; its pKd: 4.48

proMMP9(20-445;ΔFnII) (SEQ ID NO:6) (Homo sapiens, UniProt P14780, DEL216-390) data for CC(C)Oc1ccc(S(N)(=O)=O)cc1Nc1nc2c(ccc3c2ncn3C)s1 [Example 28] ; its pKd: 6.06

proMMP9(20-445;ΔFnII) (SEQ ID NO:6) (Homo sapiens, UniProt P14780, DEL216-390) data for COc1ccc([N+](=O)[O-])cc1Nc1nc2c(ccc3c2ncn3C)s1 [Example 76] ; its pKd: 6.28

proMMP9(20-445;ΔFnII) (SEQ ID NO:6) (Homo sapiens, UniProt P14780, DEL216-390) data for CCN(CC)S(=O)(=O)c1ccc(OC)c(Nc2nc3c(ccc4c3ncn4C)s2)c1 [Example 71] ; its pKd: 5.70

proMMP9(20-445;ΔFnII) (SEQ ID NO:6) (Homo sapiens, UniProt P14780, DEL216-390) data for CCOc1ccncc1Nc1nc2c(ccc3c2ncn3C)s1 [Example 156] ; its pKd: 6.19

Cited source: patent US20120129811A1
